Molecular target: Delta-type opioid receptor (Homo sapiens, UniProt P41143)
Sequence (P41143 whole entry): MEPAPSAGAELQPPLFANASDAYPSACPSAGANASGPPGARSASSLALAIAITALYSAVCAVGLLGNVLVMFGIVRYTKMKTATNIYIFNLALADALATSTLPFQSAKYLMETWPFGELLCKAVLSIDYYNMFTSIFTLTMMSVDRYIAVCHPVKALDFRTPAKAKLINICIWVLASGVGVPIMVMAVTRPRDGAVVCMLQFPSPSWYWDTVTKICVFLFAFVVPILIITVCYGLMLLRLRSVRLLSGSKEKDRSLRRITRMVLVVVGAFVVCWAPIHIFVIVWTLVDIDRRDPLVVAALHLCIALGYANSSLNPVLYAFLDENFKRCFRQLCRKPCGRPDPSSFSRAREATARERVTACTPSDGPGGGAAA
Experiment: In vitro binding affinity against cloned human Opioid receptor delta 1 expressed in HEK 293S cells
endpoint: IC50

compound="C[C@H]1C2C3=CC=CCC3[C@@H](Cc3ccccc32)N1C (stereo partly specified)" experimental_result="> 10 µM"

Values were extracted from BindingDB's records for doi:10.1021/jm020164l.
